// reported melting point per item

COMPOUND	melting point
ON=C1C2CCC1CN(Cc1ccccc1)C2	92 to 95 °C
CN1CC(=O)NC1=NC(=O)Nc1cccc(Cl)c1	180 °C
Cc1cc(Cc2ccccc2)nc(Nc2ccc(C(=O)NN)c(F)c2)n1	191 to 193 °C
COC=C(C(=O)OC)c1ccccc1CON=C(C)c1noc2ccccc12	97 to 98 °C
COc1ccc(C(=O)c2ccc3[nH]c(=O)nc(-c4cccc(Cl)c4)c3c2)cc1	248 °C
O=C(O)c1cnn(-c2nc(-c3cc(C(F)(F)F)cc(C(F)(F)F)c3)cs2)c1C(F)(F)F	204 to 205 °C
O=C(OCCO)c1ccc(Cl)c([N+](=O)[O-])c1	102 to 104 °C
Cc1cccc(C2COc3cc(O)ccc3C2c2ccc(OCCN3CCCC3)cc2)c1 (stereo not given)	85 to 90 °C
CC(C)(C)C1=NN(c2ccc(C(=O)O)cc2)C(c2ccc([N+](=O)[O-])cc2)C1 (stereo not given)	245 °C

Form: compound = CC(C)OCCNc1ccccc1C(=O)C(=O)OC(=O)C(=O)c1ccccc1NCCOC(C)C ; melting point = 107 to 108 °C

###

Attribute: melting point

Answered examples (5):
COMPOUND	TEST_RESULT
O=C(NC1=NN(c2cccc(Cl)c2)CC1)C(F)(F)F	143 to 144 °C
CCOC(=O)/C=C/c1ccc(OCCCOCCOC)cc1Oc1ncc(C(F)(F)F)cc1Cl	65 to 67 °C
COc1ccc(C(=O)C=Cc2ccc(SC)cc2)cc1	112 °C
Cc1c(Cl)cccc1S(=O)(=O)n1c(CCCC(=O)O)cc2nc(Cl)ccc21	127 to 128 °C
CON(C)C(=O)[C@H]1CC[C@H](NC(=O)OC(C)(C)C)CC1	130 to 140 °C

Switching to the query record.
Reported melting point for CN1C(=O)N=NC1CSc1ccccc1OCCc1coc(-c2ccccc2)n1 (stereo not given) was 130 to 132 °C

###

OBSERVATION_TYPE: melting point

Answered examples (5):
COMPOUND	melting point
COc1cnccc1C#N	66 to 67 °C
Cc1nc(C)n(-c2cc(C)c3[nH]c(=O)ccc3c2)c1I	242 to 245 °C
Cc1cccc(C)c1NC(=O)NCCCc1cc(-c2ccccc2)n(-c2ccc(S(N)(=O)=O)cc2)n1	138 to 141 °C
COc1ccc(C2CCc3cc(Br)ccc3O2)cc1 (stereo not given)	121 to 123 °C
CCOC(=O)C1=C(C2CC2)Nc2n[nH]cc2C1c1cccc(C#N)c1Br (stereo not given)	168 to 170 °C

Documented melting point of O=C1N(CCc2noc(C(F)(F)F)n2)c2ccccc2C12COc1cc3c(cc12)OCO3 (stereo not given) : 45 to 48 °C

Lab note: measured melting point of O=C(CCl)Nc1ccc(Cl)cc1C(=O)c1ccccc1 was 119 to 120 °C

Reported melting point of O=S(=O)(c1ccc(O)cc1)c1ccc(Cl)cc1 : 143 to 145 °C

Sample CCOC(=O)C(C#N)=CNc1ccc([N+](=O)[O-])cc1 ; melting point observed: 227 to 228 °C

Record Fc1ccc(F)c(CC2CCN(C3CC=C(c4ccc5c(c4)OCO5)CC3)CC2)c1 (stereo not given) , field melting point: 87 to 88 °C

###

OBSERVATION_TYPE: melting point

Short answer for Cc1c(Br)c2c(c(C)c1NC(=O)CC(C)(C)C)CC(C)(C)O2 : melting point was 205 to 206 °C

For CCOC(=O)C1CCCN(S(=O)(=O)c2ccc3[nH]c(=O)c4cccc5c4c3c2C5)C1 (stereo not given) the compound record lists melting point as 215 to 218 °C

Looking up CC1C(c2ccccc2)OP(N)(=O)N1C (stereo not given) , I found its melting point recorded as 170 to 172 °C

So for COC(=O)c1sc(C(=O)OC)c(OC)c1C , the logged melting point turned out to be 61 to 64 °C

###

The following molecules are listed with their measured melting point values.

MOLECULE	TEST_RESULT
CC(C)(O)C(=O)Nc1ccc(Sc2ccc(NS(C)(=O)=O)cc2)cc1Cl	138 to 140 °C
COC(=O)COc1ccc2c(c1)sc1cc3ccccc3c(-c3ccc(O)cc3)c12	229 to 231 °C
CCOC(=O)CCCC(CNC(=O)OC(C)(C)C)c1ccccc1 (centres undefined)	82 to 84 °C

Now consider a different molecule.
Lab note: measured melting point of COC(=O)[C@](C)(Cc1ccc(N(C(=O)OC(C)(C)C)C(=O)C2CCNCC2)cc1)n1nnnc1C1CCCN1S(=O)(=O)c1ccc(C)cc1 (some centres undefined) was 92 to 102 °C

###

Measured melting point values are reported for all entries that follow.

COMPOUND	melting point
C[N+]([O-])=C(Cn1ccnc1)c1ccc(F)cc1	81 to 84 °C
Cc1cccc(-c2nc(N)sc2-c2ccnc(-c3ccc(OC(F)(F)F)cc3)c2)n1	222 to 224 °C
CCCCCCC(O)C(=O)NCCS (stereo not given)	83 to 84 °C

In the following, a different compound is considered.
melting point measured on C[C@@H](Sc1ccc(O)cc1)C(=O)O = 138 to 139 °C

###

List of melting point values.

COMPOUND	TEST_RESULT
O=C(CNC(=O)c1ccccc1)c1ccsc1	118 to 119 °C

The record that follows has no melting point shown yet.
compound Nc1ccc(-c2noc(-c3cnn4c(C(F)F)cc(-c5ccc(C(F)(F)F)cc5)nc34)n2)cn1 , melting point observed: 242 °C

###

Readings of melting point for the listed compounds

COMPOUND	TEST_RESULT
COC=C(C(=O)OC)c1ccc(CC(=O)O)cc1	81 to 84 °C
Cc1sc2c(c1C)C(c1ccc(Cl)cc1)=N[C@@H](CC(=O)Nc1ccc(O)cc1)c1nnc(C)n1-2	215 to 220 °C
CCCN1C(=O)N2C(=NCC2c2ccccc2)c2[nH]cnc21 (stereo unspecified)	258 to 264 °C
CC(=O)c1c(NC(C)(C)C)nc(NC(C)(C)C)c(Br)c1C	99 to 100 °C
CC(C)Cc1nn(C)c(=O)c2cn(Cc3cccc4ccccc34)cc12	110 to 112 °C

melting point reading for CCCC[C@H](NC(=O)[C@H](CC(C)C)NC(=O)COc1ccc(F)cc1)C(=O)CSCc1ccco1 : 88 to 91 °C

// melting point lookup, compound = O=C(Cn1c(Cl)ccc1Cl)N=C1NCCN1 , result: 225 °C

Record CCCCCCCC(=O)c1cn(CCCC(=O)O)c2ccccc12 , field melting point: 100 to 102 °C

Summary for this compound, CC(=O)Nc1ccc(C=CC2CSC(=O)NN2)cc1 (stereo unspecified) : melting point is 235 to 240 °C

Entry O=C1c2ccccc2C(=O)N1CCCS(=O)(=O)c1ccc(Cl)cc1 — recorded melting point = 188 °C

# compound Cc1cccc(S(=O)(=O)n2c(CCC(=O)O)cc3cc(Cl)ccc32)c1 ; its melting point = 161 to 165 °C

The reported melting point of the compound COC(=O)CCCCCNC(=O)/C=C/C=C/c1ccccc1[N+](=O)[O-] was 115 to 117 °C

Lab note: CCOC(=O)N1CC[C@H](N(Cc2ccccc2)Cc2ccccc2)[C@H](OC)C1 (relative stereo) gave melting point of 95.2 °C

Measured melting point, N#Cc1ccc2c(c1)CCC2=O : 123 to 125 °C

# melting point of CN1C(C2CCCCC2)Nc2ccc(S(=O)(=O)N3CCOCC3)cc2S1(=O)=O (stereo unspecified) = 243 to 245 °C

###

OBSERVATION_TYPE: melting point

Record summary for CCN(C(=O)c1ccccc1)[C@@H](Cc1c[nH]c2ccccc12)C(=O)OC(=O)c1ccc(N)cc1 : reported melting point = 181 to 183 °C

Reported melting point of Cc1ccc(NC(=O)N(C)C(c2cnc(C(F)F)nc2Cl)C(C)C)cc1 (stereo unspecified) : 135 to 137 °C

Per the records, this compound ( c1cnc(N2CCN(CCCCn3cccn3)CC2)nc1 ) has melting point equal to 124 °C

// field: melting point; key: Clc1cc(CCc2ccccn2)c2oc(-c3nccc4ccccc34)nc2c1 ; value = 142 to 143 °C

Reported melting point ( CCOc1ccc(-c2ccc(C3(O)CN4CCC3CC4)cc2)cc1 (stereo unspecified) ) = 199 to 200 °C

###

# reported melting point; entries follow

// solved cases for melting point follow
COMPOUND	melting point
Cc1c(NCc2ccccc2)c2c(c3c1C(c1ccc(C(C)C)cc1)CO3)CCCC2 (stereo not given)	98 to 99 °C
O=C1c2ccccc2C(=O)N1Cc1ccc(OCCCCc2ccccc2)cc1	106 to 108 °C
COC1=CC(=O)c2c(cc(Br)c(O)c2Br)C1=O	224 to 228 °C
COC(=O)c1ccc(CO)cc1O	77 to 78 °C

Lab note: next compound to report on.
melting point reading for O=C(Nc1ccc(Cl)cc1Cl)c1ccccc1SSc1ccccc1C(=O)Nc1ccc(Cl)cc1Cl : 227 to 228 °C
